// provenance: ChEMBL document CHEMBL1221220

system name: General amino-acid permease GAP1 (Saccharomyces cerevisiae) (UniProt P19145)
Sequence (whole entry): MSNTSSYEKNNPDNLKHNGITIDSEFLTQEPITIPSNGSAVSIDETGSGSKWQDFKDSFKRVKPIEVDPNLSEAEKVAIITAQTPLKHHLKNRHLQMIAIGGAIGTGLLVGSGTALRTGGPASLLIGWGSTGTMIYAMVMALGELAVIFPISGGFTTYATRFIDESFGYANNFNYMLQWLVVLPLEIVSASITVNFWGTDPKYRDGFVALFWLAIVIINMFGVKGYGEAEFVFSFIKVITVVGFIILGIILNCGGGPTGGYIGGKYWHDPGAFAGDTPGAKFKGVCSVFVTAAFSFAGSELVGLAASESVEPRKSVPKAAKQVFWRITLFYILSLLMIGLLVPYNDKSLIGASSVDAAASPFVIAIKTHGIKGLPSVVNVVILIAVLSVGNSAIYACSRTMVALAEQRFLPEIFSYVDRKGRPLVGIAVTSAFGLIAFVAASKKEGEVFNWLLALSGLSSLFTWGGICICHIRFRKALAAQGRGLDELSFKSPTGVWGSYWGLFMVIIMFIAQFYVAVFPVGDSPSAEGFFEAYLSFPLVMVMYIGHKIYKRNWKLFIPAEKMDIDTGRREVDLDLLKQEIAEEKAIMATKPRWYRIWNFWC
test conditions: sigma1278b, at 5 mM
Description: Inhibition of nitrogen-starved wild type sigma1278b yeast Gap1-mediated amino acid uptake at 5 mM after 60 secs relative to L-citrulline
Non-standard residues stand in square brackets, D forms with d. Residues, ends and D or L forms follow the SMILES beside them. Sar = CNCC(=O)O
readout type: inhibition

Give the measured inhibition of N[C@@H](Cc1c[nH]cn1)C(=O)N[C@@H](CO)C(=O)O (H-His-Ser-OH) .
< 15%

Entry CC(C)(C)OC(=O)[C@@H](N)Cc1ccccc1 please
< 15%

Cool, now CC[C@H](C)[C@H](N)C(N)=O
< 15%

Same lookup for C[C@@H](O)C(NC(=O)CN)C(=O)O (mixture of isomers) , please.
15%

Next molecule up: N[C@@H](Cc1cnc[nH]1)C(=O)NCC(=O)N[C@@H](Cc1cnc[nH]1)C(=O)O (H-His-Gly-His-OH)
< 15%

Same lookup for CN(CC(=O)O)C(=O)CN (H-Gly-[Sar]-OH) , please.
< 15%

What do you get for N[C@@H](Cc1ccco1)C(=O)O ?
> 30%

Field entry: N[C@@H](CO)C(=O)N[C@@H](Cc1ccc(O)cc1)C(=O)O (H-Ser-Tyr-OH)
< 15%

Next record, please: NC(=O)[C@H](Cc1ccccc1)NC(=O)[C@@H](N)CC(=O)O (H-Asp-Phe-NH2)
< 15%

Also C[C@H](NC(=O)[C@@H](N)Cc1ccc(O)cc1)C(=O)N[C@@H](CCCNC(=N)N)C(=O)O (H-Tyr-Ala-Arg-OH) ?
< 15%

* * *

system name: UniProt P19145
Sequence (whole entry): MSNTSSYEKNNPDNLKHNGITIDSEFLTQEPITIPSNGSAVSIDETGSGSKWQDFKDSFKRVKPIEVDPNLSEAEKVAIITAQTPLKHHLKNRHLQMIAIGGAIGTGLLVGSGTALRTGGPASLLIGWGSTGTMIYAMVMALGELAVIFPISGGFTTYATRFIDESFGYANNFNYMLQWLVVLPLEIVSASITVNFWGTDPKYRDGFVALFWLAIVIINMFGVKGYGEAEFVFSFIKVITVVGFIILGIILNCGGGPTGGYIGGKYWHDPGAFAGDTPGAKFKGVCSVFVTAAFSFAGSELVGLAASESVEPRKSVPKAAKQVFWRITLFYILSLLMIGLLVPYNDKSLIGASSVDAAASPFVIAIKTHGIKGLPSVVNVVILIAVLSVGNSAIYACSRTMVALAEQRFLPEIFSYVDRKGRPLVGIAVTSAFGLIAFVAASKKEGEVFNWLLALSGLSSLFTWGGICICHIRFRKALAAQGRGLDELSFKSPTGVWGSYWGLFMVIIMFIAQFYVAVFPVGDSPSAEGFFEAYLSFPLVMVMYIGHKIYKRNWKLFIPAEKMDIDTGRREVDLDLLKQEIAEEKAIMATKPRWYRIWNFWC
assay details: Noncompetitive inhibition of nitrogen-starved wild type sigma1278b yeast Gap1-mediated amino acid uptake at 5 mM after 60 secs relative to L-citrulline
Residues, ends and D or L forms follow the SMILES beside them.
readout type: inhibition

I am curious: what inhibition value has been reported for CC(C)C[C@H](NC(=O)[C@@H](NC(=O)[C@@H](N)CC(C)C)C(C)C)C(=O)O (H-Leu-Val-Leu-OH) ?
15%

Further, for CC(C)[C@H](NC(=O)CNC(=O)[C@H](C)N)C(=O)O (H-Ala-Gly-Val-OH) ?
> 30%

And then C[C@H](N)C(=O)NCC(=O)N[C@@H](C)C(=O)O (H-Ala-Gly-Ala-OH) , what is it?
> 30%

Same question for NC(N)=NCCC[C@H](N)C(=O)NCC(=O)O (H-Arg-Gly-OH) please.
> 30%

CC(C)C[C@H](NC(=O)[C@H](C)N)C(=O)O (H-Ala-Leu-OH) ?
> 30%
